Data provenance is patent US20230117470A1.

- system_tested: human TLR8 (Homo sapiens)
- assay_overview: TLR8 inhibition reporter assay (HEK-Blue cells, SEAP reporter, R848 stimulation)
- run_conditions: HEK-Blue cells overexpressing human TLR8, SEAP reporter, R848 15.9 μM

>  <smiles_repr>
Cc1cc(-c2[nH]nc(C(=O)NC3CCOCC3)c2C(C)C)cn2ncnc12

>  <IC50 / nM>
265

$$$$
>  <smiles_repr>
Cc1cc(-c2[nH]nc(C(=O)N[C@H]3CC[C@H](NCc4cncnc4)CC3)c2C(C)C)cn2ncnc12

>  <IC50 / nM>
27.1

$$$$
>  <smiles_repr>
Cc1cc(-c2[nH]nc(C(=O)NC[C@@H]3CCCN3)c2C(C)C)cn2ncnc12

>  <IC50 / nM>
1.03

$$$$
>  <smiles_repr>
Cc1noc(C)c1CN[C@H]1CC[C@@H](NC(=O)c2n[nH]c(-c3cc(C)c4ncnn4c3)c2C(C)C)CC1

>  <IC50 / nM>
15.6

$$$$

----------
- system_tested: human TLR8 (Homo sapiens, UniProt Q9NR97)
- Sequence (Q9NR97 27-1041): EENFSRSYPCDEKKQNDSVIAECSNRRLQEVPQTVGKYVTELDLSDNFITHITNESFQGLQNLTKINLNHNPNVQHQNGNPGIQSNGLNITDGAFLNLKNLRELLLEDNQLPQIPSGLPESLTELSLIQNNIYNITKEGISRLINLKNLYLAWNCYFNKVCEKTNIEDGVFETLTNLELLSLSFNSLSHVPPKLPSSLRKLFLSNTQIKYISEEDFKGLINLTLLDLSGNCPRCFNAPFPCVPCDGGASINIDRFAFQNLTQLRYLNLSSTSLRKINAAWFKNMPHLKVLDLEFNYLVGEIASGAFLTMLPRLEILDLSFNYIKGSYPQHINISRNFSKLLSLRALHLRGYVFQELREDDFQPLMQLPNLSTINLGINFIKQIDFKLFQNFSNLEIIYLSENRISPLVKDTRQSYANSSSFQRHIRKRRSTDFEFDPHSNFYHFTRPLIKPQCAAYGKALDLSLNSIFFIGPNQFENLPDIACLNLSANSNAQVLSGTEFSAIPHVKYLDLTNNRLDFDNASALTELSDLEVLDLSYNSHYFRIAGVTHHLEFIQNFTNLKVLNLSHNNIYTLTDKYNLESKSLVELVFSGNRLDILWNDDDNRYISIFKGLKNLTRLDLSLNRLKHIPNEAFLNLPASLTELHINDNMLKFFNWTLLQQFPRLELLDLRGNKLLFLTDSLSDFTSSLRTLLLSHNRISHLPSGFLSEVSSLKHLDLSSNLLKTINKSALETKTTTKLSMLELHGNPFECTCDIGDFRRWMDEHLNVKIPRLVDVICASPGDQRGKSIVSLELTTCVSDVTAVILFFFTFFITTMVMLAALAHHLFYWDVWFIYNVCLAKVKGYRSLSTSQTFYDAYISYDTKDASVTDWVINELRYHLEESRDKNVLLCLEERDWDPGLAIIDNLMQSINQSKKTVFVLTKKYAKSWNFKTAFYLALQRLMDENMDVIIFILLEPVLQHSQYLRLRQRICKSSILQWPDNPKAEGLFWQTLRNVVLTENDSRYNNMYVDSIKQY
- assay_overview: TLR8 inhibition reporter assay (HEK-Blue cells, SEAP reporter, R848 stimulation)
- run_conditions: HEK-Blue cells overexpressing human TLR8, SEAP reporter, R848 15.9 μM
Group membership follows IC50 per the scheme I (below 5 nM), II (5 nM to below 20 nM), III (20 nM or more)

>  <compound>
CCN(C)C1CCC(c2n[nH]c(-c3cc(C)c4ncnn4c3)c2C(C)C)CC1 (single isomer, unassigned) [Example 283]

>  <group_label>
I

$$$$
>  <compound>
Cc1cc(-c2[nH]nc(C(=O)NC3CCC(NCC(C)(C)C)CC3)c2C(C)C)cn2ncnc12 (stereo not shown) [Example 131]

>  <group_label>
III

$$$$
>  <compound>
Cc1cc(-c2[nH]nc(C(=O)NC3CCN(CC(F)(F)F)CC3)c2C(C)C)cn2ncnc12 [Example 173]

>  <group_label>
II

$$$$
>  <compound>
CC(C)c1c(C(=O)NC2CCN(C(C)C)CC2)n[nH]c1-c1cn(C)c2ncccc12 [Example 42]

>  <group_label>
II

$$$$
>  <compound>
Cc1cc(-c2[nH]nc(C(=O)N[C@H]3CC[C@H](N(CCC(C)(C)C)CCC(C)(C)C)CC3)c2C(C)C)cn2ncnc12 [Example 107]

>  <group_label>
III

$$$$
>  <compound>
Cc1cc(-c2[nH]nc(-c3cnc(N)nc3)c2C(C)C)cn2ncnc12 [Example 228]

>  <group_label>
I

$$$$
>  <compound>
COc1cc(-c2[nH]nc(C(=O)N3CCCN(C)CC3)c2C(C)C)cn2ncnc12 [Example 10]

>  <group_label>
I

$$$$
>  <compound>
Cc1cc(-c2[nH]nc(-c3nc4c(s3)CN(CC(=O)N(C)C)CC4)c2C(C)C)cn2ncnc12 [Example 275]

>  <group_label>
III

$$$$
>  <compound>
Cc1cc(-c2[nH]nc(-c3nc4c(s3)CN(C)CC4)c2C(C)C)cn2ncnc12 [Example 256]

>  <group_label>
III

$$$$
>  <compound>
Cc1cc(-c2[nH]nc(C(=O)N[C@H]3CC[C@@H](N(CCC(C)(C)C)CCC(C)(C)C)CC3)c2C(C)C)cn2ncnc12 [Example 90]

>  <group_label>
I

$$$$
>  <compound>
Cc1cc(-c2[nH]nc(-c3nc4c(s3)CN(C3COC3)CC4)c2C(C)C)cn2ncnc12 [Example 253]

>  <group_label>
I

$$$$
>  <compound>
CCc1c(C(=O)NC2CCN(C(C)C)CC2)n[nH]c1-c1cc(C)c2ncnn2c1 [compound 182]

>  <group_label>
I

$$$$
>  <compound>
CCN1CC(C(=O)N(C)C2CCC(c3n[nH]c(-c4cc(C)c5ncnn5c4)c3C(C)C)CC2)C1 (single isomer, unassigned) [Example 306]

>  <group_label>
III

$$$$
>  <compound>
COc1cc(-c2[nH]nc(-c3nc4c(s3)CN(C)CC4)c2C(C)C)cn2ncnc12 [Example 262]

>  <group_label>
II

$$$$
>  <compound>
Cc1cc(-c2[nH]nc(-c3nc4c(s3)CN(C(=O)C[C@H](C)O)CC4)c2C(C)C)cn2ncnc12 [Example 269]

>  <group_label>
I

$$$$
>  <compound>
COc1cc(-c2[nH]nc(-c3ccc(C4CCN(CC5CC5)CC4)cn3)c2C(C)C)cn2ncnc12 [Example 374]

>  <group_label>
II

$$$$
>  <compound>
Cc1cc(-c2[nH]nc(C(=O)NC3CCN(CC4CCOCC4)CC3)c2C(C)C)cn2ncnc12 [Example 77]

>  <group_label>
III

$$$$
>  <compound>
Cc1cc(-c2[nH]nc(C(=O)NC3CCC(O)CC3)c2C(C)C)cn2ncnc12 (stereo not shown) [Example 32]

>  <group_label>
II

$$$$
>  <compound>
Cc1cc(-c2[nH]nc(C(=O)NC3CCN(C(C)CS(C)(=O)=O)CC3)c2C(C)C)cn2ncnc12 (stereo not shown) [Example 174]

>  <group_label>
I

$$$$
>  <compound>
Cc1cc(-c2[nH]nc(-c3cccnc3)c2C(C)C)cn2ncnc12 [Example 224]

>  <group_label>
I

$$$$
>  <compound>
Cc1cc(-c2[nH]nc(C(=O)NCC3CN(CC(C)(C)C)CCO3)c2C(C)C)cn2ncnc12 (stereo not shown) [Example 145]

>  <group_label>
III

$$$$
>  <compound>
Cc1cc(-c2[nH]nc(C(=O)NC3CCC(N(C)C)CC3)c2C(C)C)cn2ncnc12 (stereo not shown) [Example 7]

>  <group_label>
II

$$$$
>  <compound>
Cc1cc(-c2[nH]nc(-c3nc4c(s3)CN(C(C)C)CC4)c2C(C)C)cn2ncnc12 [Example 252]

>  <group_label>
III

$$$$
>  <compound>
Cc1cc(-c2[nH]nc(C(=O)N[C@H]3CCCN(C)C3)c2C(C)C)cn2ncnc12 [Example 162]

>  <group_label>
II

$$$$
>  <compound>
Cc1cc(-c2[nH]nc(C(=O)NC3CCN(Cc4ncn(C)n4)CC3)c2C(C)C)cn2ncnc12 [Example 158]

>  <group_label>
III

$$$$
>  <compound>
Cc1cc(-c2[nH]nc(-c3cnc(N(C)C)cn3)c2C(C)C)cn2ncnc12 [Example 236]

>  <group_label>
II

$$$$
>  <compound>
Cc1cc(-c2[nH]nc(-c3ccc(C4CCN(C(C)C)CC4)cc3)c2C(C)C)cn2ncnc12 [Example 307]

>  <group_label>
II

$$$$
>  <compound>
Cc1cc(-c2[nH]nc(C(=O)NC3CCN(CC(C)(C)C)CC3)c2C(C)C)cn2ncnc12 [Example 74]

>  <group_label>
I

$$$$
>  <compound>
Cc1cc(-c2[nH]nc(-c3ccc(N)nc3)c2C(C)C)cn2ncnc12 [Example 227]

>  <group_label>
II

$$$$
